The origin of these recorded values is paper PMC11984905.

- experimental-protocol: Stability and protonation constants of Cu(II)-complexes (spectrophotometry, pH-potentiometry)
- Format: physicochemical
- condition-info: 0.15 M NaCl, 25 °C
I'd be grateful if you could share measured logKCuHL for these entries.

Inquiry: Return the recorded logKCuHL value; entry: O=C(CCC(C(=O)O)N1CCN(C(CCC(=O)NCC(O)CO)C(=O)O)Cc2cccc(n2)CN(C(CCC(=O)NCC(O)CO)C(=O)O)CC1)NCC(O)CO (stereo not drawn) [ent‐L2]
Reply text: 3.27 (1)

Inquiry: Please give the documented logKCuHL of O=C(O)CCC(C(=O)O)N1CCN(C(CCC(=O)O)C(=O)O)Cc2cccc(n2)CN(C(CCC(=O)O)C(=O)O)CC1 (stereo not drawn) [ent‐L1]
Reply text: 5.25 (2)

Inquiry: Fill in logKCuHL for record O=C(CCC(C(=O)O)N1CCN(C(CCC(=O)NCC(O)CO)C(=O)O)Cc2cccc(n2)CN(C(CCC(=O)NCC(O)CO)C(=O)O)CC1)NCC(O)CO (racemic) [rac‐L2]
Reply text: 4.42 (4)

Inquiry: Please give the documented logKCuHL of O=C(O)CCC(C(=O)O)N1CCN(C(CCC(=O)O)C(=O)O)Cc2cccc(n2)CN(C(CCC(=O)O)C(=O)O)CC1 (racemic) [rac‐L1]
Reply text: 5.38 (3)

====

Can you tell me logK^c GdL for the items I'm about to list?
- experimental-protocol: Stability, protonation and conditional stability constants (pGd) of Gd(III)-complexes (out-of-cell pH-potentiometry, 1H NMR relaxometry, competition with AAZTA)
- Assay type: physicochemical
- condition-info: conditional stability constant at pH 7.4; 0.15 M NaCl

Inquiry: For O=C(O)CCC(C(=O)O)N1CCN(C(CCC(=O)O)C(=O)O)Cc2cccc(n2)CN(C(CCC(=O)O)C(=O)O)CC1 (stereo not drawn) [ent‐L1] , write its logK^c GdL.
Reply text: 16.85

Inquiry: Identify the reported logK^c GdL for the following entry. O=C(CCC(C(=O)O)N1CCN(C(CCC(=O)NCC(O)CO)C(=O)O)Cc2cccc(n2)CN(C(CCC(=O)NCC(O)CO)C(=O)O)CC1)NCC(O)CO (stereo not drawn) [ent‐L2]
Reply text: 17.31

Inquiry: Identify the reported logK^c GdL for the following entry. O=C(CCC(C(=O)O)N1CCN(C(CCC(=O)NCC(O)CO)C(=O)O)Cc2cccc(n2)CN(C(CCC(=O)NCC(O)CO)C(=O)O)CC1)NCC(O)CO (racemic) [rac‐L2]
Reply text: 16.76

Inquiry: State its logK^c GdL for this compound: O=C(O)CCC(C(=O)O)N1CCN(C(CCC(=O)O)C(=O)O)Cc2cccc(n2)CN(C(CCC(=O)O)C(=O)O)CC1 (racemic) [rac‐L1]
Reply text: 15.34

====

- experimental-protocol: Stability and protonation constants of Zn(II)-complexes (pH-potentiometry)
- Type: physicochemical
- condition-info: 0.15 M NaCl, 25 °C
readout-kind: logK ZnL

Inquiry: Respond only with logK ZnL recorded for O=C(CCC(C(=O)O)N1CCN(C(CCC(=O)NCC(O)CO)C(=O)O)Cc2cccc(n2)CN(C(CCC(=O)NCC(O)CO)C(=O)O)CC1)NCC(O)CO (racemic) [rac‐L2]
Reply text: 18.66 (3)

Inquiry: Specify measured logK ZnL for O=C(O)CCC(C(=O)O)N1CCN(C(CCC(=O)O)C(=O)O)Cc2cccc(n2)CN(C(CCC(=O)O)C(=O)O)CC1 (stereo not drawn) [ent‐L1] .
Reply text: 20.77 (2)

Inquiry: Quote logK ZnL reported for O=C(CCC(C(=O)O)N1CCN(C(CCC(=O)NCC(O)CO)C(=O)O)Cc2cccc(n2)CN(C(CCC(=O)NCC(O)CO)C(=O)O)CC1)NCC(O)CO (stereo not drawn) [ent‐L2] please.
Reply text: 20.13 (3)

Inquiry: Respond only with logK ZnL recorded for O=C(O)CCC(C(=O)O)N1CCN(C(CCC(=O)O)C(=O)O)Cc2cccc(n2)CN(C(CCC(=O)O)C(=O)O)CC1 (racemic) [rac‐L1]
Reply text: 19.54(2)
